Tested on: MCF7 breast
Protocol details: NCI tumour cell line growth inhibition, 48 h
Assay readout: TGI

{"Entry smiles": "Cc1cc(-n2nnc(C(=O)O)c2-c2ccccc2)c2ccc(Cl)cc2n1", "Study target": "MCF7 breast", "Assay readout": "TGI", "Result": "> 100 µM"}
{"Entry smiles": "Cc1nc2cc(F)c(F)cc2[nH]c1=O", "Study target": "MCF7 breast", "Assay readout": "TGI", "Result": "> 100 µM"}
{"Entry smiles": "C#CC(O)(c1nc2ccccc2s1)c1nc2ccccc2s1", "Study target": "MCF7 breast", "Assay readout": "TGI", "Result": "52.9 µM"}
{"Entry smiles": "CSC(SC)=C(C#N)C(=O)Nc1cccc(Cl)c1", "Study target": "MCF7 breast", "Assay readout": "TGI", "Result": "> 100 µM"}

* * *

Test system: A498 renal
Protocol details: NCI tumour cell line growth inhibition, 48 h
Attribute: TGI
Assay readout: TGI

{"Compound": "Cc1cn(C2CCC(CO)(CF)O2)c(=O)[nH]c1=O (centres undefined)", "Assay readout": "TGI", "Result": "> 100 µM"}
{"Compound": "COc1ccc([C@H](CC(=O)O)N2CCN(CCCc3ccc4c(n3)NCCC4)C2=O)cn1", "Assay readout": "TGI", "Result": "0.0633 µM"}
{"Compound": "CC(C)(C)OC(=O)NC12C3C4C1C1C2C3C41NC(=O)OC(C)(C)C (centres undefined)", "Assay readout": "TGI", "Result": "> 100 µM"}
{"Compound": "CCCC[C@@H](C)/C=C1\\CN2CCC[C@H]2[C@@](C)(OCc2ccccc2)[C@@H]1O", "Assay readout": "TGI", "Result": "> 50 µM"}
{"Compound": "C[C@H]1[C@H](C)N1CC(O)Cn1ccnc1[N+](=O)[O-] (some centres undefined)", "Assay readout": "TGI", "Result": "> 100 µM"}
{"Compound": "Nc1ccc(-c2nc3ccccc3s2)cc1Cl", "Assay readout": "TGI", "Result": "4.17 µM"}
{"Compound": "C/C(=C\\c1ccn(-c2ccccc2N)n1)[C@@H]1C[C@@H]2O[C@]2(C)CCC[C@H](C)[C@H](O)[C@@H](C)C(=O)C(C)(C)[C@@H](O)CC(=O)O1", "Assay readout": "TGI", "Result": "0.669 µM"}
{"Compound": "ClC(Cl)=C(Cl)C1(Cl)CC1COCc1ccccc1 (centres undefined)", "Assay readout": "TGI", "Result": "> 100 µM"}
{"Compound": "COc1cc2ccc(C(=O)NCCCNC(=O)c3ccc4cc(OC)c(OC)cc4c3)cc2cc1OC", "Assay readout": "TGI", "Result": "> 100 µM"}
{"Compound": "C=C1C(=O)O[C@H]2[C@H]1CC/C(COC(=O)CCCCCC(=O)OC/C1=C/CC[C@@]3(C)O[C@H]3[C@H]3OC(=O)C(=C)[C@@H]3CC1)=C\\CC[C@@]1(C)O[C@@H]21", "Assay readout": "TGI", "Result": "27.4 µM"}
{"Compound": "CC1CC/C(=C\\c2ccc(F)cc2)C2=C1C(c1ccc(F)cc1)N1C(=O)CSC1=N2 (centres undefined)", "Assay readout": "TGI", "Result": "> 100 µM"}
{"Compound": "O=C1CCCNn2c(nc3ncccc3c2=O)N1", "Assay readout": "TGI", "Result": "> 100 µM"}
{"Compound": "Cc1cc2c(c(C(N)=O)c1C)-c1cccc(F)c1C2=O", "Assay readout": "TGI", "Result": "> 100 µM"}
{"Compound": "Cc1ccc(/C=C/c2c(C(=O)/C=C/c3ccccc3)c(C)nc3ccccc23)cc1", "Assay readout": "TGI", "Result": "3.23 µM"}
{"Compound": "CC1=NN(c2cccc(Cl)c2)C2(C1=Cc1ccc(O)cc1)C(Cl)C(=O)N2c1nc2ccccc2s1 (centres undefined)", "Assay readout": "TGI", "Result": "42.5 µM"}
{"Compound": "CO/N=C(\\COc1ccc2c(=O)c3ccccc3oc2c1)c1ccccc1", "Assay readout": "TGI", "Result": "47.7 µM"}
{"Compound": "N#C/C(=C1\\SCC(=O)N1c1ccccc1)c1nc2ccccc2[nH]1", "Assay readout": "TGI", "Result": "> 100 µM"}
{"Compound": "C/C(CC(=O)NCCc1ccccc1)=N\\NS(=O)(=O)c1ccc(C)cc1", "Assay readout": "TGI", "Result": "> 100 µM"}
{"Compound": "C=CO/N=[N+](\\[O-])N(CC)CC", "Assay readout": "TGI", "Result": "> 100 µM"}
{"Compound": "OC1(c2ccccc2)C2CC=CC2C1(c1ccccc1)c1ccccc1 (centres undefined)", "Assay readout": "TGI", "Result": "57 µM"}
{"Compound": "CC(C)N(C(=O)c1cccc(C(=O)N(C(C)C)C(C)C)c1)C(C)C", "Assay readout": "TGI", "Result": "> 100 µM"}
{"Compound": "O=C(COc1ccc(OCC(=O)N2C(=O)CC(=O)N(c3ccc(Cl)cc3)C2=S)cc1)N1C(=O)CC(=O)N(c2ccc(Cl)cc2)C1=S", "Assay readout": "TGI", "Result": "> 100 µM"}
{"Compound": "O=C(CCN1CCOCC1)/C(=C/c1ccccc1)c1ccccc1", "Assay readout": "TGI", "Result": "23.3 µM"}
{"Compound": "NC(Cc1ccc(OCc2ccccc2)cc1)C(=O)NC(Cc1ccccc1)C(=O)Oc1c(Cl)c(Cl)c(Cl)c(Cl)c1Cl (centres undefined)", "Assay readout": "TGI", "Result": "37.9 µM"}
{"Compound": "CCN1C/C(=C\\c2ccc(Cl)cc2)c2nc(N)c(C#N)c(-c3ccc(Cl)cc3)c2C1", "Assay readout": "TGI", "Result": "> 100 µM"}
{"Compound": "O=[N+]([O-])c1cccc(/C=N/NC2=CS(=O)(=O)C=C2)c1", "Assay readout": "TGI", "Result": "> 100 µM"}
{"Compound": "FC(F)(F)c1cc(N(C2c3ccccc3C=Cc3ccccc32)P(Cl)Cl)cc(C(F)(F)F)c1", "Assay readout": "TGI", "Result": "56.8 µM"}
{"Compound": "CC1=CC2C(C(O)CC3(C)C2CC(C)C32OCOC23COCO3)C2(C)C/C(=C/O)C(=O)C=C12 (centres undefined)", "Assay readout": "TGI", "Result": "14.8 µM"}
{"Compound": "NS(=O)(=O)c1nc(S(=O)(=O)O)c2[nH]cnc2n1", "Assay readout": "TGI", "Result": "> 100 µM"}
{"Compound": "CSC(=S)Nc1cc(C)cc(C)n1", "Assay readout": "TGI", "Result": "> 100 µM"}
{"Compound": "c1ccc(-c2nn3c(c2-c2ccnc4cc(OCCN5CCOCC5)ccc24)CCC3)nc1", "Assay readout": "TGI", "Result": "> 100 µM"}
{"Compound": "Cc1cc(S(=O)(=O)Nc2nc3ncccc3[nH]2)c(S)cc1Cl", "Assay readout": "TGI", "Result": "> 100 µM"}
{"Compound": "CCCCCCCCCCCC1=NC(C)(C)CN1C(C)(C)CO", "Assay readout": "TGI", "Result": "20.8 µM"}
{"Compound": "COc1cc2c(cc1OC)C(C(=O)O)C(c1ccccc1)N(C)C2=O (centres undefined)", "Assay readout": "TGI", "Result": "> 100 µM"}

* * *

System: OVCAR-4 ovarian
Protocol details: NCI tumour cell line growth inhibition, 48 h
*1 amine or outer side, *2 acyl side, *3 side chain or, on linkers, in order; H or OH if unused. Where a SMILES comes first, the peptide text is derived from it. Bridges are numbered along the chain shown (N, C = ends). Roman numbers before positions name the chains, in order. [ ]: non-standard residue; d: D form. Actinocin(9to1) = Cc1c2oc3c(C)ccc(C(=O)[*:1])c3nc-2c(C(=O)[*:2])c(N)c1=O; NMeH = CN[CH](Cc1c[nH]cn1)C(=O)O; Sar = CNCC(=O)O

{"Compound": "COc1cc(/C=C/c2ccc(C)cc2)cc(OC)c1OC", "Study target": "OVCAR-4 ovarian", "TGI": "44.7 µM"}
{"Compound": "O[C@@H]1C=C[C@]23CCN(Cc4cc5c(cc42)OCO5)[C@@H]3C1", "Study target": "OVCAR-4 ovarian", "TGI": "> 100 µM"}
{"Compound": "Nc1ccc(-c2nc3ccccc3s2)cc1Cl", "Study target": "OVCAR-4 ovarian", "TGI": "> 100 µM"}
{"Compound": "Fc1ccc(-c2ncn(C3CCNCC3)c2-c2ccnc(Oc3ccc4c(c3)OCO4)n2)cc1", "Study target": "OVCAR-4 ovarian", "TGI": "> 25 µM"}
{"Compound": "[2H]C([2H])([2H])NC(=O)c1nnc(NC(=O)C2CC2)cc1Nc1cccc(-c2ncn(C)n2)c1OC", "Study target": "OVCAR-4 ovarian", "TGI": "> 100 µM"}
{"Compound": "O=P1(N2CCOCC2)OCCO1", "Study target": "OVCAR-4 ovarian", "TGI": "> 100 µM"}
{"Compound": "Cc1c2oc3c(C)ccc(C(=O)NC4C(=O)NC(C(C)C)C(=O)N5CCCC5C(=O)N(C)CC(=O)N(C)C(Cc5cnc[nH]5)C(=O)OC4C)c3nc-2c(C(=O)NC2C(=O)NC(C(C)C)C(=O)N3CCCC3C(=O)N(C)CC(=O)N(C)C(Cc3cnc[nH]3)C(=O)OC2C)c(N)c1=O (stereo not given) (I: TVP[Sar][NMeH] / II: TVP[Sar][NMeH]; ester I:1-I:C, II:1-II:C; linker I:N-II:N via Actinocin(9to1); configuration not given here)", "Study target": "OVCAR-4 ovarian", "TGI": "> 100 µM"}
{"Compound": "Cc1ccc(S(=O)(=O)Oc2ccc3c4c(c(=O)oc3c2)CCCCCC4)cc1", "Study target": "OVCAR-4 ovarian", "TGI": "> 100 µM"}
{"Compound": "C=CC(=O)N1CCC(c2ccc(C(N)=O)c(-c3ccc(Oc4ccccc4)cc3)n2)CC1", "Study target": "OVCAR-4 ovarian", "TGI": "> 100 µM"}
{"Compound": "Cc1cn(C2CCC(CO)(CF)O2)c(=O)[nH]c1=O (stereo not given)", "Study target": "OVCAR-4 ovarian", "TGI": "> 100 µM"}
{"Compound": "COc1cc2c(cc1OC)-c1ncc3c(OC)ccc(OC)c3c1C2", "Study target": "OVCAR-4 ovarian", "TGI": "> 100 µM"}
{"Compound": "O=C(Nc1sccc1S(=O)(=O)c1ccc(Cl)cc1)c1ccc(F)cc1F", "Study target": "OVCAR-4 ovarian", "TGI": "53.9 µM"}
{"Compound": "COC(=O)c1c2c(c(C)[n+]([O-])c1C)C(=O)C=C(NCc1ccccc1)C2=O", "Study target": "OVCAR-4 ovarian", "TGI": "1.18 µM"}
{"Compound": "O=c1[nH]nc(-c2ccccc2)n1/N=C/c1ccc([N+](=O)[O-])o1", "Study target": "OVCAR-4 ovarian", "TGI": "16.7 µM"}
{"Compound": "O=C(O)CCC(=O)OCN1C(=O)C2C3C=CC(C2C1=O)C1C2C(=O)N(COC(=O)CCC(=O)O)C(=O)C2C31 (stereo not given)", "Study target": "OVCAR-4 ovarian", "TGI": "> 100 µM"}
